Target: Endothelin receptor type B (Sus scrofa)
reported metric: IC50 (µM)

Reference set (3 entries):
>  <structure string>
CCCCN(CCCC)C(=O)CN1C[C@H](c2ccc3c(c2)CCO3)[C@@H](C(=O)O)[C@@H]1c1ccc(C)cc1

>  <IC50 (µM)>
12

$$$$
>  <structure string>
CCCCN(CCCC)C(=O)CN1C[C@H](c2ccc3c(c2)OCO3)[C@@H](C(=O)O)[C@@H]1c1ccc(C(F)(F)F)cc1

>  <IC50 (µM)>
14.3

$$$$
>  <structure string>
CCCCN(CCCC)C(=O)CN1C[C@H](c2ccc3c(c2)OCO3)[C@@H](C(=O)O)[C@@H]1c1ccc(OC)c(F)c1

>  <IC50 (µM)>
0.03

$$$$

a: CCCCN(CCCC)C(=O)CN1C[C@H](c2ccc3c(c2)OCO3)[C@@H](C(=O)O)[C@@H]1c1ccc(C)cc1
b: CCCCN(CCCC)C(=O)CN1C[C@H](c2ccc3c(c2)OCO3)[C@@H](C(=O)O)[C@@H]1c1ccc(CCC)cc1
Q: // compare measured IC50, left a , right b , return larger I would appreciate it if you answered with the label of your choice.
A: a
(a: 2.14 µM, b: 1.13 µM)
